Tested Target: CYP3A4 (Homo sapiens, UniProt P08684)
Experiment Description: CYP3A4 activity (midazolam 1′-hydroxylation) in human liver microsomes
Test Context: read-out: Ki CYP3A4 (midazolam 1′-hydroxylation assay); Dixon and Lineweaver–Burk plots, substrate ½ Km to 4 Km
Sequence (P08684 2-503): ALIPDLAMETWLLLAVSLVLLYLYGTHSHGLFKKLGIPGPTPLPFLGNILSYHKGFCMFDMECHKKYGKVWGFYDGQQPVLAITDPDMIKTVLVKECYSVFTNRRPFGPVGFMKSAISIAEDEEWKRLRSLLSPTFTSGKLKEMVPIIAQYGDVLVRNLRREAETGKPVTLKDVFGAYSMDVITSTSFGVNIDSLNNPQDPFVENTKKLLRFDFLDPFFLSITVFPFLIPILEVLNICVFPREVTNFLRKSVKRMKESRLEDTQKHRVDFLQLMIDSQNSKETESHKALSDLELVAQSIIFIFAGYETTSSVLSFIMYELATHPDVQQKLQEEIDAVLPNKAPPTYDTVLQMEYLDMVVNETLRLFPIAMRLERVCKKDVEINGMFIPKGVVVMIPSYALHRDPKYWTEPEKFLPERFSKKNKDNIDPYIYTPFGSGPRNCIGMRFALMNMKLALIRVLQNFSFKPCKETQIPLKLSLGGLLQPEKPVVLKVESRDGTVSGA
Endpoint: Ki (µM)
Your answer is read as µM, so omit the unit and give the number.

Query :: Supply recorded Ki for O.O.O.O=[N+]([O-])[O-].O=[N+]([O-])[O-].[Cu+2] [copper(II) nitrate trihydrate, reference compound] here.
Result :: 8.25

* * *

Tested Target: CYP3A4 (Homo sapiens, UniProt P08684)
Experiment Description: Isothermal titration calorimetry, recombinant human CYP3A4
Format: binding
Set-up: purchased Sigma-Aldrich (Prague, Czech Republic)
Test Context: ITC, recombinant human CYP3A4, 25 °C, pH 7.4, 1% DMSO
Sequence (P08684 whole entry): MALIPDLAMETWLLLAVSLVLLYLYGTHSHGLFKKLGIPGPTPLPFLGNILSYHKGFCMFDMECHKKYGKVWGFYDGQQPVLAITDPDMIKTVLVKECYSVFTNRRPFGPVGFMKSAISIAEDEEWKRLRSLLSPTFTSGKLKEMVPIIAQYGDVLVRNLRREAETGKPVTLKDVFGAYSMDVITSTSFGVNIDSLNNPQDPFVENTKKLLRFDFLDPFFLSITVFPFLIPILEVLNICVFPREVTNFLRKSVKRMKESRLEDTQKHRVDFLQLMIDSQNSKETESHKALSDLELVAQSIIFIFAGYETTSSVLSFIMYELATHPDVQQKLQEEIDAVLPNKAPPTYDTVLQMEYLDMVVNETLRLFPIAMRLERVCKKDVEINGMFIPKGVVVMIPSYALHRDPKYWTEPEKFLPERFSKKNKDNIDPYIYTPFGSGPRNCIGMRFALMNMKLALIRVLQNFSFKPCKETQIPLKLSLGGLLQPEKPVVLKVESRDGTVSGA
Endpoint: Kd (nM)
Your answer is read as nM, so omit the unit and give the number.

Compound	Kd, nM
Cc1cc2cccnc2c2ncccc12.O.O=[N+]([O-])[O-].O=c1c([O-])c(-c2ccccc2)[nH]c2ccccc12.[Cu+2] [complex 1]	76.9

Now look at this entry.
Query :: Supply recorded Kd for Cc1cc2cccnc2c2ncccc12.F[B-](F)(F)F.O.O=c1c([O-])c(-c2ccccc2)[nH]c2ccccc12.[Cu+2] [complex 2] here.
Result :: 62.9
